# System: 565726-208-R1-J5-PDC complex spheroids, growth inhibition
# protocol-text: Anticancer human tumor 565726-208-R1-J5-PDC patient-derived pancreatic adenocarcinoma cell line growth inhibition [RAS]
# applied-conditions: second compound 0.1 µM; first compound 0.316 µM; stronger effect = lower value
Overview of reported viability, T/C across a group of molecules:

molecule	viability, T/C [%]
CC(Nc1ccc2c(c1)OCCn1cc(N3C(=O)OCC3C(F)F)nc1-2)C(N)=O (stereo not given) + C=CC(=O)N1CCN(c2nc(OCC3CCCN3C)nc3c(F)c(-c4nc(N)cc(C)c4C(F)(F)F)c(Cl)cc23)C(C)C1	69.4
C=CC(=O)Nc1cc(Nc2nccc(-c3cn(C)c4ccccc34)n2)c(OC)cc1N(C)CCN(C)C + C=CC(=O)N1CCN(c2nc(OCC3CCCN3C)nc3c(F)c(-c4nc(N)cc(C)c4C(F)(F)F)c(Cl)cc23)C(C)C1	82
CC(C)NCC(C(=O)N1CCN(c2ncnc3c2C(C)CC3O)CC1)c1ccc(Cl)cc1 (stereo not given) + C=CC(=O)N1CCN(c2nc(OCC3CCCN3C)nc3c(F)c(-c4nc(N)cc(C)c4C(F)(F)F)c(Cl)cc23)C(C)C1	93.1
CCN1CCN(Cc2ccc(Nc3ncc(F)c(-c4cc(F)c5nc(C)n(C(C)C)c5c4)n3)nc2)CC1 + C=CC(=O)N1CCN(c2nc(OCC3CCCN3C)nc3c(F)c(-c4nc(N)cc(C)c4C(F)(F)F)c(Cl)cc23)C(C)C1	61.1
CC1(O)CCCC1n1c(=O)c(C(F)F)cc2cnc(NC3CCN(S(C)(=O)=O)CC3)nc21 (stereo not given) + C=CC(=O)N1CCN(c2nc(OCC3CCCN3C)nc3c(F)c(-c4nc(N)cc(C)c4C(F)(F)F)c(Cl)cc23)C(C)C1	63.8

* * *

Overview of reported IC50 across a group of molecules:
# Tested on: 565726-208-R1-J5-PDC complex spheroids, growth inhibition
# protocol-text: Anticancer human tumor 565726-208-R1-J5-PDC cell line growth inhibition [RAS];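 further: spheroids exposed to compounds for seven days before readout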
# applied-conditions: curve of first compound; second compound 0.1 µM

molecule	IC50
C=CC(=O)Nc1cc(Nc2nccc(-c3cn(C)c4ccccc34)n2)c(OC)cc1N(C)CCN(C)C + C#Cc1c(F)ccc2cc(O)cc(-c3ncc4c(N5CC6CCC(C5)N6)nc(OCC56CCCN5CC(F)C6)nc4c3F)c12	> 1000 nM
CC(C)NCC(C(=O)N1CCN(c2ncnc3c2C(C)CC3O)CC1)c1ccc(Cl)cc1 (stereo not given) + C#Cc1c(F)ccc2cc(O)cc(-c3ncc4c(N5CC6CCC(C5)N6)nc(OCC56CCCN5CC(F)C6)nc4c3F)c12	> 10000 nM
C=CC(=O)Nc1cc(Nc2nccc(-c3cn(C)c4ccccc34)n2)c(OC)cc1N(C)CCN(C)C + C=CC(=O)N1CCN(c2nc(OCC3CCCN3C)nc3c(F)c(-c4nc(N)cc(C)c4C(F)(F)F)c(Cl)cc23)C(C)C1	> 1000 nM
NC1c2ccccc2OC12CCN(c1cnc3c(N4CCCc5ncccc54)n[nH]c3n1)CC2 (stereo not given) + C=CC(=O)N1CCN(c2nc(OCC3CCCN3C)nc3c(F)c(-c4nc(N)cc(C)c4C(F)(F)F)c(Cl)cc23)C(C)C1	> 10000 nM
CCN1CCN(Cc2ccc(Nc3ncc(F)c(-c4cc(F)c5nc(C)n(C(C)C)c5c4)n3)nc2)CC1 + C#Cc1c(F)ccc2cc(O)cc(-c3ncc4c(N5CC6CCC(C5)N6)nc(OCC56CCCN5CC(F)C6)nc4c3F)c12	> 1000 nM
